system_name: Adenosine receptor A2a (Rattus norvegicus)
Sequence (P30543 whole entry): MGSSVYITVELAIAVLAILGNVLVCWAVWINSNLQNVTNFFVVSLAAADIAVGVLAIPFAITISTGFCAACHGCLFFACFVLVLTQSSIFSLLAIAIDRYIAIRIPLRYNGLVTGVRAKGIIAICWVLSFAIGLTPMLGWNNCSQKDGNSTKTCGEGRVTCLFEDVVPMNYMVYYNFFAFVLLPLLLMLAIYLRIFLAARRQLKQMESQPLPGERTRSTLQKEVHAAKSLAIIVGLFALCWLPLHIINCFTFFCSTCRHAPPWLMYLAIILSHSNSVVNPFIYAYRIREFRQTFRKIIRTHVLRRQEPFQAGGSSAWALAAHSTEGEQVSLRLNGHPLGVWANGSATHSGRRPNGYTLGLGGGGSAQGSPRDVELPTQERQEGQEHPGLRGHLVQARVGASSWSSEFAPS
pKi: −log10 of the molar value.
property_label: pKi

Below: 5 molecules and their reported pKi.
Record CC(C)c1cccc(-c2cn3nc(-c4ccco4)nc3c(N)n2)c1 : what is its pKi with Adenosine receptor A2a (Rattus norvegicus)?
6.17

Record Nc1nc(-c2cccc([N+](=O)[O-])c2)cn2nc(-c3ccco3)nc12 : what is its pKi with Adenosine receptor A2a (Rattus norvegicus)?
6.34

Record CN(Cc1ccccc1)C(=O)c1cn2nc(-c3ccco3)nc2c(N)n1 : what is its pKi with Adenosine receptor A2a (Rattus norvegicus)?
7.57

Record CC(C)NC(=O)c1cccc(-c2cn3nc(-c4ccco4)nc3c(N)n2)c1 : what is its pKi with Adenosine receptor A2a (Rattus norvegicus)?
6.85

Record Nc1nc(-c2cccc(C(=O)N3CCN(Cc4ccccc4)CC3)c2)cn2nc(-c3ccco3)nc12 : what is its pKi with Adenosine receptor A2a (Rattus norvegicus)?
6.17

(I) Nc1nc(-c2cccc3cccnc23)cn2nc(-c3ccco3)nc12
(II) Nc1nc(-c2ccc(C(=O)N3CCOCC3)cc2)cn2nc(-c3ccco3)nc12
Return label of the item with the larger pKi. Candidates: I , II . Lab log: write the label of the selected item as the result.
II

Cited source for all entries: ChEMBL document CHEMBL1143471
